Origin of values: paper PMC6273488

# experimentDescription: in vitro
# Format: cell-based
# experimentalConditions: human, HepG2 cells; HepG2, 1 µM, 24 h, MTT; read-out: In vitro toxicity (% cell viability)
readout: viability at 24 h, 1 µM (%)
Lab book: enter the figure in %, no units written.

These recorded examples may help you get a feel for the data.
# compound, viability at 24 h, 1 µM, %
rows = [
    ("Cc1ccc(C2c3c(nc4n(c3=O)CCCC4)Oc3ccc4ccccc4c32)cc1 (stereo not shown)", 106),
    ("O=c1c2c(nc3n1CCCC3)Oc1ccc3ccccc3c1C2c1ccccc1 (stereo not shown)", 99.3),
    ("COc1cccc(C2c3c(nc4n(c3=O)CCC4)Oc3ccc4ccccc4c32)c1 (stereo not shown)", 109),
]

Now for a further compound.
Item COc1cccc(C2c3c(nc4n(c3=O)CCCC4)Oc3ccc4ccccc4c32)c1 (stereo not shown) has what recorded viability at 24 h, 1 µM?
108

###

# experimentDescription: Oxygen radical absorbance capacity by fluorescence (ORAC-FL)
# experimentalConditions: mean ± SD
readout: ORAC (Trolox equivalents)
Lab book: enter the figure in Trolox equivalents, no units written.

# compound, recordedNumber
measured = [
    ("O=c1c2c(nc3n1CCC3)Oc1ccc3ccccc3c1C2c1ccccc1 (stereo not drawn)", 2.6),
    ("Cc1ccc(C2c3ccc4ccccc4c3Oc3nc4n(c(=O)c32)CCCC4)cc1 (stereo not drawn)", 2.9),
    ("Cc1ccc(C2c3ccc4ccccc4c3Oc3nc4n(c(=O)c32)CCC4)cc1 (stereo not drawn)", 3.2),
    ("COc1cccc(C2c3c(nc4n(c3=O)CCC4)Oc3ccc4ccccc4c32)c1 (stereo not drawn)", 3.4),
    ("O=c1c2c(nc3n1CCCC3)Oc1c(ccc3ccccc13)C2c1ccccc1 (stereo not drawn)", 2.3),
    ("O=c1c2c(nc3n1CCCCC3)Oc1ccc3ccccc3c1C2c1ccccc1 (stereo not drawn)", 2.5),
]

Item COc1cccc(C2c3ccc4ccccc4c3Oc3nc4n(c(=O)c32)CCCCC4)c1 (stereo not drawn) has what recorded ORAC?
3.4

Item Cc1ccc(C2c3c(nc4n(c3=O)CCCC4)Oc3ccc4ccccc4c32)cc1 (stereo not drawn) has what recorded ORAC?
3.9

Item COc1cccc(C2c3ccc4ccccc4c3Oc3nc4n(c(=O)c32)CCCC4)c1 (stereo not drawn) has what recorded ORAC?
3.7

###

# assayTarget: Recombinant human Aβ1–42 peptide (Homo sapiens, UniProt P05067)
# Construct: Recombinant human 1,1,1,3,3,3-hexafluoro-2-propanol pretreated Aβ1–42 peptide; purchased Merck Millipore
# Sequence (P05067 672-713): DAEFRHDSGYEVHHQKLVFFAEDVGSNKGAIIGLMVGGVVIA
# experimentDescription: Inhibition of Aβ1-42 aggregation (Thioflavin-T fluorometric assay)
# Format: biochemical
# experimentalConditions: 10 µM compound and 1.5 µM Aβ1-42; mean ± standard deviation of two independent experiments
readout: inhibition at 10 µM

# compound, readout, result
records = [
    ("O=c1c2c(nc3n1CCCC3)Oc1ccc3ccccc3c1C2c1ccccc1 (stereo not shown) [3Ab]", "inhibition at 10 µM", "13.6%"),
    ("Cc1ccc(C2c3c(nc4n(c3=O)CCCC4)Oc3ccc4ccccc4c32)cc1 (stereo not shown) [3Cb]", "inhibition at 10 µM", "< 10%"),
    ("COc1cccc(C2c3c(nc4n(c3=O)CCC4)Oc3ccc4ccccc4c32)c1 (stereo not shown) [3Ba]", "inhibition at 10 µM", "< 10%"),
]

Now for a further compound.
Form: Entry = COc1cccc(C2c3c(nc4n(c3=O)CCCC4)Oc3ccc4ccccc4c32)c1 (stereo not shown) [3Bb] | System = Recombinant human Aβ1–42 peptide (Homo sapiens, UniProt P05067) | inhibition at 10 µM = ____
< 10%
